Source: patent US9073855B2

Target: GST-Bcl-XL (Homo sapiens, UniProt Q07817)
Sequence (Q07817 whole entry): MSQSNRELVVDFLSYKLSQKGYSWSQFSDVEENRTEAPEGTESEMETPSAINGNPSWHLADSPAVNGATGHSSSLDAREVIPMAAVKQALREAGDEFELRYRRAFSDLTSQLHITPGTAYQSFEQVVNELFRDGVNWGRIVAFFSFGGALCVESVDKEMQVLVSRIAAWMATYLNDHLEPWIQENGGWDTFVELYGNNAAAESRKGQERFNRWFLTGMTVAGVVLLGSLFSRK
Test: TR-FRET binding assay, GST-Bcl-XL with F-Bak peptide probe
Settings: TR-FRET Binding Affinity, GST-Bcl-XL, F-Bak peptide probe
Parameter: Ki

input: Query: Ki; subject: CN(C)CCCc1cccc(-c2ccc(Cl)cc2)c1CN1CCN(c2ccc(C(=O)NS(=O)(=O)c3ccc(NCC4CCOCC4)c([N+](=O)[O-])c3)c(Oc3cccc4[nH]ccc34)c2)CC1 [Example 196]
output: > 660 nM

input: Any idea what its Ki is? The compound is CC1(C)CCC(c2ccc(Cl)cc2)=C(CN2CCN(c3ccc(C(=O)NS(=O)(=O)c4ccc(NCCCN5CCOCC5)c([N+](=O)[O-])c4)c(Oc4ccc5[nH]ccc5c4)c3)CC2)C1 [Example 50]
output: 90.1 nM

input: State the recorded Ki for this entry: CC1(C)CCC(CN2CCN(c3ccc(C(=O)NS(=O)(=O)c4ccc(NC5CCN(CCCO)CC5)c([N+](=O)[O-])c4)c(Oc4cccc5[nH]ccc45)c3)CC2)=C(c2ccc(Cl)cc2)C1 [Example 195]
output: 6.71 nM

input: For CC(C)(C)c1ccc(CN2CCN(c3ccc(C(=O)NS(=O)(=O)c4ccc(OCC5CCOCC5)c([N+](=O)[O-])c4)c(Oc4ccc5[nH]ccc5c4)c3)CC2)c(-c2ccc(Cl)cc2)c1 [Example 342] , what is its reported Ki?
output: > 660 nM

input: Could you tell me which Ki is on file for CN1CCC(Nc2ccc(S(=O)(=O)NC(=O)c3ccc(N4CCN(CC5=C(c6ccc(Cl)cc6)CC(C)(C)CC5)CC4)cc3Oc3ccccc3)cc2[N+](=O)[O-])CC1 [Example 152] ?
output: 0.412 nM

input: May I ask what Ki has been recorded for CC1(C)CCC(CN2CCN(c3ccc(C(=O)NS(=O)(=O)c4ccc(OCC5(F)CCOCC5)c([N+](=O)[O-])c4)c(Oc4cccc5[nH]cnc45)c3)CC2)=C(c2ccc(Cl)cc2)C1 [Example 408] ?
output: 28.1 nM

input: Please report the recorded Ki for CC1(C)CCC(CN2CCN(c3ccc(C(=O)NS(=O)(=O)c4ccc(NC[C@H]5CCCOC5)c([N+](=O)[O-])c4)c(Oc4ccc5[nH]ccc5c4)c3)CC2)=C(c2ccc(Cl)cc2)C1 [Example 181] .
output: > 660 nM

input: Look up Ki: CN1CCC(Nc2ccc(S(=O)(=O)NC(=O)c3ccc(N4CCN(CC5=C(c6ccc(Cl)cc6)CCC(O)C5)CC4)cc3Oc3ccc4[nH]ccc4c3)cc2[N+](=O)[O-])CC1 (stereo not shown) [Example 224]
output: 0.999 nM

input: Recorded Ki of CC1(C)CCC(CN2CCN(c3ccc(C(=O)NS(=O)(=O)c4ccc(NC5CCN(CC6CC6)CC5)c([N+](=O)[O-])c4)c(Oc4ccc5[nH]ccc5c4)c3)CC2)=C(c2ccc(Cl)cc2)C1 [Example 214] , please.
output: 64 nM

input: Suppose we examine the compound CN1CCN(CCNc2ccc(S(=O)(=O)NC(=O)c3ccc(N4CCN(CC5=C(c6ccc(Cl)cc6)CC(C)(C)CC5)CC4)cc3Oc3cccc4[nH]ccc34)cc2[N+](=O)[O-])CC1 [Example 101] ; what Ki value has been reported?
output: 11.2 nM
